Entries and their pIC50
tested_target: cytochrome P450 2C9 (Homo sapiens)
Sequence (P11712 whole entry): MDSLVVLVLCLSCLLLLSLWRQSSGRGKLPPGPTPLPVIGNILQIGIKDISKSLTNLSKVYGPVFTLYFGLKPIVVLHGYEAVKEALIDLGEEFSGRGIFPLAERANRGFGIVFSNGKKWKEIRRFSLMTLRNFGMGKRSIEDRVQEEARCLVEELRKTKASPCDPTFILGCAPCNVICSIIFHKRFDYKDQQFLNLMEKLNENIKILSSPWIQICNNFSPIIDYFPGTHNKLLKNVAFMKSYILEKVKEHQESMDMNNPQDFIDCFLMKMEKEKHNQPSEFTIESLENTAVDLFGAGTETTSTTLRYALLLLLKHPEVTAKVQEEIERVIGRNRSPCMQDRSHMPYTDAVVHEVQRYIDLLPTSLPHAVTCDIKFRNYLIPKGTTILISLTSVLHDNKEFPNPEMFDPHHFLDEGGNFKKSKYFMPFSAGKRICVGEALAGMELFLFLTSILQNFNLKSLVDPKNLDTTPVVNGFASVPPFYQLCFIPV
assay_explanation: Determining the cyp2C9 activity (O-demethylation of [O-methyl-14C]-naproxen)
reported_conditions: human recombinant cytochrome P450 2C9; 37° C.; <0.4 μM when inhibition >50% at lowest concentration; read-out: CYP 2C9 IC50
pIC50: −log10 of the molar value.

{"compound": "COc1c(NC(=O)c2cc3cccc(CN4CCN(C(=O)[C@@H]5CCCN5C)CC4)c3n2C)cc(C(C)(C)C)cc1C(=O)N(C)C [Example 11]", "tested_target": "cytochrome P450 2C9 (Homo sapiens)", "reported_relation": "=", "pIC50": 5.23}
{"compound": "COc1c(NC(=O)c2cc3cccc(CN4CCN(C(=O)[C@H]5C[C@@H](O)CN5C)CC4)c3n2C)cc(C(C)(C)C)cc1NS(C)(=O)=O [1(10)]", "tested_target": "cytochrome P450 2C9 (Homo sapiens)", "reported_relation": "=", "pIC50": 6.39}
{"compound": "COc1c(CN2CCCC(N(C)C)C2)cc(C(C)(C)C)cc1NC(=O)c1cc2cccc(CN3CCN(C(=O)[C@@H]4CCCN4C)CC3)c2n1C (stereo partly shown) [9(3)]", "tested_target": "cytochrome P450 2C9 (Homo sapiens)", "reported_relation": "=", "pIC50": 5.16}
{"compound": "CN1CCC[C@H]1C(=O)N1CCN(Cc2cccc3cc(C(=O)Nc4cccc(N5CCOCC5)c4)n(C)c23)CC1 [1(25)]", "tested_target": "cytochrome P450 2C9 (Homo sapiens)", "reported_relation": "=", "pIC50": 5.10}
{"compound": "COc1c(NC(C)=O)cc(C(C)(C)C)cc1NC(=O)c1cc2cccc(CN3CCN(C(=O)[C@@H]4CCCN4C)CC3)c2n1C [12(2)]", "tested_target": "cytochrome P450 2C9 (Homo sapiens)", "reported_relation": "=", "pIC50": 5.46}
{"compound": "COc1c(NC(=O)c2cc3cccc(CN4CCN(C(=O)C5CCN(C)CC5)CC4)c3n2C)cc(C(C)(C)C)cc1NS(C)(=O)=O [Example 1]", "tested_target": "cytochrome P450 2C9 (Homo sapiens)", "reported_relation": "=", "pIC50": 5.62}
{"compound": "CCCS(=O)(=O)Nc1cc(C(C)(C)C)cc(NC(=O)c2cc3cccc(CN4CCN(C(=O)[C@@H]5CCCN5C)CC4)c3n2C)c1OC [Example 13]", "tested_target": "cytochrome P450 2C9 (Homo sapiens)", "reported_relation": "=", "pIC50": 6.30}
{"compound": "COc1c(NC(=O)c2cc3cccc(CN4CCN(C(=O)C5CN(C)C5)CC4)c3n2C)cc(C(C)(C)C)cc1NS(C)(=O)=O [1(2)]", "tested_target": "cytochrome P450 2C9 (Homo sapiens)", "reported_relation": "=", "pIC50": 5.87}
{"compound": "COc1c(NC(=O)c2cc3cccc(CN4CCN(C(=O)[C@H]5CCCN5C)CC4)c3n2C)cc(C(C)(C)C)cc1NS(C)(=O)=O [1(3)]", "tested_target": "cytochrome P450 2C9 (Homo sapiens)", "reported_relation": "=", "pIC50": 5.98}
{"compound": "CCOc1c(NC(=O)c2cc3cccc(CN4CCN(C(=O)[C@@H]5CCCN5C)CC4)c3n2C)cc(C(C)(C)C)cc1NS(C)(=O)=O [11(7)]", "tested_target": "cytochrome P450 2C9 (Homo sapiens)", "reported_relation": "=", "pIC50": 6.39}
{"compound": "CCN(CC)C1CCN(Cc2cc(C(C)(C)C)cc(NC(=O)c3cc4cccc(CN5CCN(C(=O)[C@@H]6CCCN6C)CC5)c4n3C)c2OC)C1 (stereo partly shown) [9(4)]", "tested_target": "cytochrome P450 2C9 (Homo sapiens)", "reported_relation": "=", "pIC50": 5.09}
{"compound": "COc1c(NC(=O)c2cc3cccc(CN4CCN(C(=O)C5(C)CC5)CC4)c3n2C)cc(C(C)(C)C)cc1NS(C)(=O)=O [Vb, reference compound]", "tested_target": "cytochrome P450 2C9 (Homo sapiens)", "reported_relation": ">", "pIC50": 6.40}
{"compound": "COc1c(NC(=O)c2cc3cccc(CN4CCCN(C(=O)C5CCN(C)CC5)CC4)c3n2C)cc(C(C)(C)C)cc1NS(C)(=O)=O [8(1)]", "tested_target": "cytochrome P450 2C9 (Homo sapiens)", "reported_relation": "=", "pIC50": 5.19}

---

Entries and their pIC50
tested_target: cytochrome P450 2C9 (Homo sapiens)
assay_explanation: Determining the cyp2C9 activity (O-demethylation of [O-methyl-14C]-naproxen)
reported_conditions: human recombinant cytochrome P450 2C9; 37° C.; <0.4 μM when inhibition >50% at lowest concentration; read-out: CYP 2C9 IC50
pIC50: −log10 of the molar value.

{"compound": "COc1c(NC(=O)c2cc3cccc(CN4CCN(C(=O)CN5CCCC5)CC4)c3n2C)cc(C(C)(C)C)cc1NS(C)(=O)=O [1(16)]", "tested_target": "cytochrome P450 2C9 (Homo sapiens)", "pIC50": 4.69}
{"compound": "COc1c(NC(=O)c2cc3cccc(CN4CCN(C(=O)[C@H]5CCN(C)C5)CC4)c3n2C)cc(C(C)(C)C)cc1NS(C)(=O)=O [Example 5]", "tested_target": "cytochrome P450 2C9 (Homo sapiens)", "pIC50": 5.94}
{"compound": "COc1c(NC(=O)c2cc3cccc(CN4CCCN(C(=O)[C@@H]5CCCN5C)CC4)c3n2C)cc(C(C)(C)C)cc1NS(C)(=O)=O [Example 8]", "tested_target": "cytochrome P450 2C9 (Homo sapiens)", "pIC50": 5.78}
{"compound": "COc1c(NC(=O)c2cc3cccc(CN4CCN(C(=O)N5CC[C@@H](N(C)C)C5)CC4)c3n2C)cc(C(C)(C)C)cc1NS(C)(=O)=O [Example 2]", "tested_target": "cytochrome P450 2C9 (Homo sapiens)", "pIC50": 5.89}
{"compound": "COc1c(NC(=O)c2cc3cccc(CN4CCN(C(=O)[C@H]5C[C@@H](OC)CN5C)CC4)c3n2C)cc(C(C)(C)C)cc1NS(C)(=O)=O [1(9)]", "tested_target": "cytochrome P450 2C9 (Homo sapiens)", "pIC50": 5.95}
{"compound": "COc1c(NC(=O)c2cc3cccc(CN4CCN(C(=O)[C@@H]5CCCN5)CC4)c3n2C)cc(C(C)(C)C)cc1NS(C)(=O)=O [1(4)]", "tested_target": "cytochrome P450 2C9 (Homo sapiens)", "pIC50": 6.05}
{"compound": "COc1c(CN2CCN(C)CC2)cc(C(C)(C)C)cc1NC(=O)c1cc2cccc(CN3CCN(C(=O)[C@@H]4CCCN4C)CC3)c2n1C [Example 9]", "tested_target": "cytochrome P450 2C9 (Homo sapiens)", "pIC50": 4.96}

---

Entries and their inhibition at 1 µM
tested_target: p38 MAP-kinase (Homo sapiens, UniProt Q16539)
Sequence (Q16539 whole entry): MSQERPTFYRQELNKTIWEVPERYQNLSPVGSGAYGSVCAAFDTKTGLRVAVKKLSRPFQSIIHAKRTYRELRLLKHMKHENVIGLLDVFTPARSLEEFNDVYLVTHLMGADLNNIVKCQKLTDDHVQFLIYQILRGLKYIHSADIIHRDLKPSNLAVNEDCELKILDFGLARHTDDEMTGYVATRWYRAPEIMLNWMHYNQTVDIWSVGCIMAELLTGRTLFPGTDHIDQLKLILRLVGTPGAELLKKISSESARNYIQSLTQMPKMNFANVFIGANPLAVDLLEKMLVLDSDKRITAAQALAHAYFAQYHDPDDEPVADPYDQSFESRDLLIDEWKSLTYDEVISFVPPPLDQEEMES
assay_explanation: p38 MAP-kinase enzymatic assay (phosphorylation of GST-tagged ATF2, chemoluminescence)
Type: biochemical
reported_conditions: inhibitor concentration 1 μM; activated p38 MAP-kinase 1 nM; ATP 100 μM; read-out: p38 (% Inh @ 1 μM)
measured_quantity: inhibition at 1 µM

{"molecule": "COc1c(NC(=O)c2cc3cccc(CN4CCN(C(=O)[C@@H]5CCCN5C)CC4)c3n2C)cc(C(C)(C)C)cc1NC(=O)C1CC1", "endpoint_value": "96.4%"}
{"molecule": "COc1c(CN2CCN(C)CC2)cc(C(C)(C)C)cc1NC(=O)c1cc2cccc(CN3CCN(C(=O)[C@@H]4CCCN4C)CC3)c2n1C", "endpoint_value": "98.8%"}
{"molecule": "COc1c(NC(=O)c2cc3cccc(CN4CCN(C(=O)C5(C)CC5)CC4)c3n2C)cc(C(C)(C)C)cc1NS(C)(=O)=O [Vb, reference compound]", "endpoint_value": "99.1%"}
{"molecule": "COc1c(NC(=O)c2cc3cccc(CN4CCN(C(=O)[C@@H]5CCCN5C)CC4)c3n2C)cc(CC(C)C)cc1NS(C)(=O)=O", "endpoint_value": "99.5%"}
{"molecule": "COc1c(NC(=O)c2cc3cccc(CN4CCN(C(=O)[C@@H]5CCCN5C)CC4)c3n2C)cc(C(C)C)cc1NS(C)(=O)=O", "endpoint_value": "18%"}
{"molecule": "COc1c(NC(=O)c2cc3cccc(CN4CCCN(C(=O)[C@H]5CCCN5C)CC4)c3n2C)cc(C(C)(C)C)cc1NS(C)(=O)=O", "endpoint_value": "98.9%"}
{"molecule": "CCCS(=O)(=O)Nc1cc(C(C)(C)C)cc(NC(=O)c2cc3cccc(CN4CCN(C(=O)[C@@H]5CCCN5C)CC4)c3n2C)c1OC", "endpoint_value": "99.1%"}
{"molecule": "COc1c(NC(=O)c2cc3cccc(CN4CCN(C(=O)C5CCN5C)CC4)c3n2C)cc(C(C)(C)C)cc1NS(C)(=O)=O (centres unmarked)", "endpoint_value": "99%"}
{"molecule": "COc1c(NC(=O)c2cc3cccc(CN4CCN(C(=O)[C@H]5C[C@@H](OC)CN5C)CC4)c3n2C)cc(C(C)(C)C)cc1NS(C)(=O)=O", "endpoint_value": "98.9%"}
{"molecule": "COc1c(NC(=O)c2cc3cccc(CN4CCCN(C(=O)[C@@H]5CCCN5C)CC4)c3n2C)cc(C(C)(C)C)cc1NS(C)(=O)=O", "endpoint_value": "97.3%"}
{"molecule": "COc1c(NC(=O)c2cc3cccc(CN4CCN(C(=O)CN5CCC(N(C)C)CC5)CC4)c3n2C)cc(C(C)(C)C)cc1NS(C)(=O)=O", "endpoint_value": "98.6%"}
{"molecule": "COc1c(NC(=O)c2cc3cccc(CN4CCN(C(=O)[C@H]5C[C@H](O)CN5C)CC4)c3n2C)cc(C(C)(C)C)cc1NS(C)(=O)=O", "endpoint_value": "99.2%"}
{"molecule": "COc1c(NC(=O)c2cc3cccc(CN4CCN(C(=O)[C@@H]5C[C@H](O)CN5C)CC4)c3n2C)cc(C(C)(C)C)cc1NS(C)(=O)=O", "endpoint_value": "98.9%"}
{"molecule": "COc1c(NC(=O)c2cc3cccc(CN4CCN(C(=O)CC5CC5)CC4)c3n2C)cc(C(C)(C)C)cc1NS(C)(=O)=O [Va, reference compound]", "endpoint_value": "98.8%"}
{"molecule": "COc1c(NC(=O)c2cc3cccc(CN4CCN(C(=O)CN5CCN(C)CC5)CC4)c3n2C)cc(C(C)(C)C)cc1NS(C)(=O)=O", "endpoint_value": "99.1%"}
{"molecule": "COc1c(NC(=O)c2cc3cccc(CN4CCN(C(=O)[C@@H]5CCCN5C)CC4)c3n2C)cc(C(C)(C)C)cc1C(=O)N(C)C", "endpoint_value": "92%"}
{"molecule": "COc1c(C[S+](C)[O-])cc(C(C)(C)C)cc1NC(=O)c1cc2cccc(CN3CCN(C(=O)[C@@H]4CCCN4C)CC3)c2n1C (some centres unmarked)", "endpoint_value": "99.6%"}
{"molecule": "CCN(CC)C1CCN(Cc2cc(C(C)(C)C)cc(NC(=O)c3cc4cccc(CN5CCN(C(=O)[C@@H]6CCCN6C)CC5)c4n3C)c2OC)CC1", "endpoint_value": "97.7%"}
{"molecule": "COc1c(NC(=O)c2cc3cccc(CN4CCN(C(=O)C5CN(C)C5)CC4)c3n2C)cc(C(C)(C)C)cc1NS(C)(=O)=O", "endpoint_value": "98.5%"}
{"molecule": "COc1c(CN2CCN(C(C)C)CC2)cc(C(C)(C)C)cc1NC(=O)c1cc2cccc(CN3CCN(C(=O)[C@@H]4CCCN4C)CC3)c2n1C", "endpoint_value": "98.8%"}
{"molecule": "COc1c(NC(=O)c2cc3cccc(CN4CCN(C(=O)CN5CC[C@@H](N(C)C)C5)CC4)c3n2C)cc(C(C)(C)C)cc1NS(C)(=O)=O", "endpoint_value": "98.9%"}
{"molecule": "COc1c(NC(=O)c2cc3cccc(CN4CCN(C(=O)C5CCN(C)CC5)CC4)c3n2C)cc(C(C)(C)C)cc1NS(C)(=O)=O", "endpoint_value": "98.9%"}
{"molecule": "COc1c(NC(=O)c2cc3cccc(CN4CCN(C(=O)C(C)N5CCCC5)CC4)c3n2C)cc(C(C)(C)C)cc1NS(C)(=O)=O (centres unmarked)", "endpoint_value": "98.7%"}
{"molecule": "COc1c(NC(C)=O)cc(C(C)(C)C)cc1NC(=O)c1cc2cccc(CN3CCN(C(=O)[C@@H]4CCCN4C)CC3)c2n1C", "endpoint_value": "98.2%"}
{"molecule": "COc1c(NC(=O)c2cc3cccc(CN4CCN(C(=O)[C@H]5CCN(C)C5)CC4)c3n2C)cc(C(C)(C)C)cc1NS(C)(=O)=O", "endpoint_value": "98.6%"}
{"molecule": "COc1c(NC(=O)c2cc3cccc(CN4CCCN(C(=O)C5CCN(C)CC5)CC4)c3n2C)cc(C(C)(C)C)cc1NS(C)(=O)=O", "endpoint_value": "98.1%"}
